Reference source: PubChem BioAssay (NCI)

Test system: OVCAR-5 ovarian
Experiment: NCI-60 one-dose screen, 48 h
Settings: 10 µM
This is part of a sample that, as a whole, favours compounds with a hit. Of some 83,000 tested, about 20% had one in any assay. Activity calls are given as the source filed them. Rule for the calls: active = growth percent below 10; inactive = the rest.
Possible outcomes: t (active), f (inactive)

molecule: COc1cccc2ccc(CC(O)(c3ccccc3)c3ccccc3)nc12
label: f
//
molecule: O=C(O)c1ccc(-n2cc(CNc3ccc(Oc4ccccc4)cc3)c(-c3ccccc3)n2)cc1
label: f
//
molecule: CS(=O)(=O)c1nccc(-c2c(-c3ccc(OCCc4ccccc4)cc3)nc3sccn23)n1
label: f
//
molecule: CCc1cc(Cl)c(OC)c(C(=O)NCC2CCCN2CC)c1O (stereo not given)
label: f
//
molecule: O=C(Nc1cc([N+](=O)[O-])c2[nH]c(=O)c3ccccc3c2c1)C(F)(F)F
label: f
//
molecule: CN(C)CCCSc1ccccc1NC1=C(Cl)C(=O)C(Nc2ccccc2SCCCN(C)C)=C(Cl)C1=O
label: f
//
molecule: NC1=NC(c2ccccc2)C2=C(N1)/C(=C/c1ccccc1)CCC2 (stereo not given)
label: f
//
molecule: CCOC(=O)c1cc(C(=O)c2ccc(OC)c(OC)c2)n2ccncc12
label: f
//
molecule: c1cnc2[nH]cc(-c3nc(-c4ccsc4)cs3)c2c1
label: f
//
molecule: COc1ccc2nc3cc(Cl)ccc3c(Nc3cc(CN4CCCC4)c(O)c(CN4CCCC4)c3)c2n1
label: t
//
molecule: O=C(N/N=C/c1ccc([N+](=O)[O-])cc1)c1ccccc1Nc1cccc(C(F)(F)F)c1
label: f
//
molecule: COc1ccc(-c2nn(-c3cccc(Cl)c3)cc2-c2cc(-c3cccs3)[nH]c(=S)n2)cc1
label: f
//
molecule: COc1ccc(-c2nn(-c3cccc(Cl)c3)cc2-c2c(C#N)c(=O)n3[nH]c(-c4ccc(C)cc4)nc3c2C#N)cc1
label: f
//
molecule: CCc1c2c(nc3ccc(OC(=O)N4CCC(N5CCCCC5)CC4)cc13)-c1cc3c(c(=O)n1C2)COC(=O)[C@]3(O)CC
label: f
//
molecule: O=C(Nc1ccccc1)Nc1ncnc2c1ncn2-c1ccccc1
label: f
//
molecule: C/C=C/CSC(C)(C)C(=O)NC
label: f
//
molecule: CCCCC1(O)CCCCC1
label: f
//
molecule: Cc1cc(CC(C)CC(C)(C)C)n(O)c(=O)c1 (stereo not given) (tested in a mixture with another compound)
label: f
//
molecule: COc1ccc(C2CC(c3cc(OC)c(OC)c(OC)c3)=NN2)cc1 (stereo not given)
label: f
//
molecule: CCCCC(CC)CN=C(N)NC(N)=NCCCCCCN=C(N)NC(N)=NCC(CC)CCCC (stereo not given)
label: t

---

Reported growth values are given for each entry in this list.
Tested on: SW-620 colon
Test: NCI-60 one-dose screen, 48 h (100 = growth as untreated, 0 = no growth, -100 = all killed)
Conditions: 10 µM
The panel holds about 83,000 compounds, 20% with a hit somewhere; the sample as a whole holds those more often. Calls of active or inactive are those of the source. The calls were made as follows: active = growth percent below 10; inactive = the rest.

molecule: O=C(CCCCC(=O)Oc1c(Cl)cc(Cl)cc1[N+](=O)[O-])Oc1c(Cl)cc(Cl)cc1[N+](=O)[O-]
growth: 112% (inactive)
--
molecule: Cc1cn(-c2cccc(NC(=O)c3ccc(C)c(Nc4nccc(-c5cccnc5)n4)c3)c2)cn1
growth: 20.2% (inactive)
--
molecule: O=C(Nc1cccc2c1CCCC2)c1cc2ccccc2cc1O
growth: 51.4% (inactive)
--
molecule: COc1cc(-c2ccc(N=Nc3ccc4c(S(=O)(=O)O)ccc(N)c4c3O)c(OC)c2)ccc1N=Nc1ccc2c(S(=O)(=O)O)ccc(N)c2c1O
growth: 109% (inactive)
--
molecule: Clc1ccc(/C=C2\CCCC3C2=Nc2ccccc2NC3c2ccc(Cl)cc2)cc1 (stereo unspecified)
growth: 41.5% (inactive)
--
molecule: O=C1c2ccccc2C(=O)N1CCCCNc1ccccc1
growth: 105% (inactive)
--
molecule: CCC1NC(=O)c2cc(S(N)(=O)=O)c(Cl)cc2N1 (stereo unspecified)
growth: 108% (inactive)
--
molecule: CN(C)CCC1(c2ccccc2)CCN(C)C1=O (stereo unspecified)
growth: 103% (inactive)
--
molecule: Nc1nc(Cl)nc2c1ncn2C1O[C@H](CO)[C@@H](O)[C@@H]1F (stereo partly specified)
growth: 49.7% (inactive)
--
molecule: COc1cc(-c2nn(-c3cccc(NC(=O)CCN4CCN(c5ccccc5)CC4)c3)cc2-c2ccncc2)ccc1Cl
growth: 24.5% (inactive)
--
molecule: CCOS(=O)(=O)c1c(C(C)C)cc(C(C)C)cc1C(C)C
growth: 98.3% (inactive)
--
molecule: COc1cccc(N=Nc2cccc(OC)c2)c1
growth: 94.2% (inactive)
--
molecule: COc1cc2cc(Oc3ccc(NC(=O)c4ccc(Cl)c(C(F)(F)F)c4)cc3)c(C)nc2cc1OC
growth: 34.2% (inactive)
--
molecule: COc1ccc(/C=C2\CCCC3=C2NC(N)=NC3c2ccc(OC)c(OC)c2)cc1OC (stereo unspecified)
growth: 40.7% (inactive)
--
molecule: CCOC(=O)c1sc2ncnc(Nc3ccc(NC(=O)Nc4ccc(Cl)cc4)cc3)c2c1C
growth: 63.7% (inactive)
--
molecule: COc1ccc(-c2csc(NC(=O)c3ccc(Cc4n[nH]c(=O)c5cccnc45)cc3)n2)cc1
growth: 95.2% (inactive)
--
molecule: CCOC(=O)C(C)(c1ccccc1)c1ccccc1
growth: 105% (inactive)
--
molecule: COc1cc(/C=C/c2cc(/C=C/c3ccc(O)c(OC)c3)nc(N)n2)ccc1O
growth: 1.86% (active)
--
molecule: O=C1CC(=O)N(C(=O)c2nn(-c3ccc(Cl)cc3)cc2O)N1
growth: 59.9% (inactive)
--
molecule: CN(C)CCN(Cc1ccccc1)c1ccc2ccccc2n1
growth: 91.8% (inactive)
--
molecule: Cc1ccc(C(=O)C2C(=O)C3CCC2C3)cc1 (stereo unspecified)
growth: 104% (inactive)
